B1: MLL5 (parent)
chain: EQIAERKRKMVSWEASSLGLVTAA

- Variants of: B1
- TEST SUMMARY: protein stability index of a GFP-peptide fusion (GPS, HEK-293T) (PSI 1-6); higher = more stable;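 also: lentivirally expressed fusions sorted by FACS into six bins by GFP to DsRed ratio, PSI derived from sequencing read proportions per bin multiplied by bin number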
- REPORTED CONDITIONS: c terminus: a fixed tail appended
The variants listed here are annotated with their protein stability index.

{"SEQUENCE ENTRY": "EKIAERKRKMVSWEASSLGLVTAA [Q2K]", "protein stability index": 3.05}
{"SEQUENCE ENTRY": "EQIAEHKRKMVSWEASSLGLVTAA [R6H]", "protein stability index": 2.98}
{"SEQUENCE ENTRY": "EQIAERKRKMVSWEASSCGLVTAA [L18C]", "protein stability index": 2.97}
{"SEQUENCE ENTRY": "EQIAERKRKMVSWEAESLGLVTAA [S16E]", "protein stability index": 3.02}
{"SEQUENCE ENTRY": "EQIAERKRYMVSWEASSLGLVTAA [K9Y]", "protein stability index": 2.97}
{"SEQUENCE ENTRY": "EQILERKRKMVSWEASSLGLVTAA [A4L]", "protein stability index": 2.95}
{"SEQUENCE ENTRY": "EQIAERKRKMVSWEASQLGLVTAA [S17Q]", "protein stability index": 3.08}
